B1: KRT15 (parent)
chain: SNFHINVEESVDGQVVSSHKREI

Variants of: B1
experiment_description: protein stability index of a GFP-peptide fusion (GPS, HEK-293T) (PSI 1-6); higher = more stable;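 further: lentivirally expressed fusions sorted by FACS into six bins by GFP to DsRed ratio, PSI derived from sequencing read proportions per bin multiplied by bin number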
details: c terminus: native
property_label: protein stability index
Please reply with the value in numeric form only.

Query: Supply reported protein stability index belonging to this variant: `I5G`
Response: 2.8

Query: Determine its reported protein stability index: `V16F`
Response: 2.63

Query: State its protein stability index: `R21V`
Response: 3.79

Query: Return protein stability index (reported value) for this variant: `D12C`
Response: 3.28

Query: Fill in reported protein stability index for this entry: `H4I`
Response: 2.12

Next:
Query: Assign protein stability index to the following record: `V15Y`
Response: 2.12

Query: Annotate the variant `S10C` with its measured protein stability index.
Response: 3.07
